# System: M14
# assayInfo: NCI tumour cell line growth inhibition, 48 h
The source made the active and inactive calls. Rule as the data show it: active = GI50 up to about 1.1 µM and inactive = higher.

compound | GI50
NS(=O)(=O)c1cc(S(N)(=O)=O)c(NC(=O)N(c2ccccc2)c2ccccc2)c(Cl)c1Cl | 15.7 µM (inactive)
COc1ccc2c(-c3csc(-c4c[nH]c5ccccc45)n3)c[nH]c2c1 | 7.76 µM (inactive)
COC(=O)c1nc(-c2nc(CCNC(=O)OC(C)(C)C)sc2Cl)sc1Cl | 32.1 µM (inactive)
Cc1cc(NS(=O)(=O)c2ccc(NC(NC(=O)C(C(F)(F)F)C(F)(F)F)(C(F)(F)F)C(F)(F)F)cc2)no1 | 58.7 µM (inactive)
Nc1ccc(S(=O)(=O)Nc2nc3ccccc3nc2N2CCCCC2)cc1 | 91 µM (inactive)
Cc1ccsc1/C=N/Nc1cc(C)c2cccc(C)c2n1 | > 100 µM (inactive)
c1c[nH]c(-c2ccc(-c3ccc[nH]3)c3nsnc23)c1 | > 46.9 µM (inactive)
C=C(C(=O)O[C@H]1C(=O)C2=C(C)CCC3C(=C)C(=O)O[C@@H]3C2[C@]1(C)O)C1CC[C@]2(C)CCCC(=C)[C@H]2C1 (stereo not given in full) | 7.62 µM (inactive)
COC(=O)C(Cc1ccccc1)NC(=O)C(CCCNC(=N)N)NC(=O)OCc1ccccc1 (stereo not given) | > 100 µM (inactive)
COC1CCC(O)C(/C=C/[N+](=O)[O-])C1 (stereo not given) | 2.68 µM (inactive)
O=C1C2CN(Cc3ccccc3)CC1CN(CC1CC1)C2 | > 100 µM (inactive)
O=C1OCc2nc3c(c(-c4ccccc4C(F)(F)F)c21)C(=O)OC3 | > 100 µM (inactive)
C[C@]12CC[C@H]3[C@@H](CCC4=CC(=O)CC[C@@H]43)[C@@H]1CC[C@@H]2OC1(O)C(=O)c2ccccc2C1=O | 44.6 µM (inactive)
O=C(CCN1CCCC1)c1ccc(Oc2ccc(F)cc2)cc1 | 31 µM (inactive)
CC(C)(C)NC1=NC(C(F)(F)F)(C(F)(F)F)NC(=O)N1 | 44.5 µM (inactive)
O=Cn1c2ccccc2c2ccccc21 | > 100 µM (inactive)
COc1ccc(C2C3=C(CCCC3=O)N(c3ccccc3)C3=C2C(=O)CCC3)cc1 | > 100 µM (inactive)
Cc1cc(C)c2c(=N)c3ccccc3n(CCCCCCn3c4ccccc4c(=N)c4c(C)cc(C)nc43)c2n1 | 1.85 µM (inactive)
CC(=O)Oc1ccc2c(c1)c1c(=O)oc(N(C)C)nc1n2Cc1ccccc1 | > 78.7 µM (inactive)
N#CC(NNC(=O)c1c(Cl)c(Cl)c(Cl)c(Cl)c1-c1nc2cc(C(=O)c3ccccc3)ccc2[nH]1)c1ccccc1 (stereo not given) | 7.46 µM (inactive)
N#Cc1nc(CCN2C(=O)c3ccccc3C2=O)oc1N | > 100 µM (inactive)
CC(=O)O[C@H]1CC[C@@]2(C)C(=CC[C@@H]3[C@@H]2CC[C@]2(C)c4c(C)nn(-c5ccccc5)c4C[C@@H]32)C1 | 53.8 µM (inactive)
O=C1NC2ON=C(c3ccccc3)C2C2ON=C(c3ccccc3)N12 (stereo not given) | > 100 µM (inactive)
CSc1cc(Cl)c(C)cc1S(=O)(=O)NC(=O)NNc1cccc(C(F)(F)F)n1 | > 100 µM (inactive)
Cc1csc2c(P(=O)(OC(C)C)OC(C)C)c(-c3ccccc3)cn12 | 18.4 µM (inactive)
CO[C@]12C[C@H](CNC(=O)c3cc(Br)c(Br)[nH]3)O[C@H]1NC(=O)N2 | > 100 µM (inactive)
CCOc1ccccc1NC(=O)CC1C(=O)Nc2ccccc2[S+]1[O-] (stereo not given) | 77.1 µM (inactive)
CC(C)(C)OC(=O)C1C(=O)NC(=O)CC1C(COCc1ccccc1)OCc1ccccc1 (stereo not given) | 18.9 µM (inactive)
CCc1nc(N)nc(N)c1-c1ccc(N2CCNCC2)c([N+](=O)[O-])c1 | 7.08 µM (inactive)
CN(C)C(=S)/N=c1\sn(C)/c(=N\C(=S)N(C)C)n1C | > 100 µM (inactive)
O=C(O)CNc1ccc(Cl)c(Cl)c1 | 27.4 µM (inactive)
C=C(CO[Si](C)(C)C(C)(C)C)C(C)=O | 13.1 µM (inactive)
COC(=O)/C=C(\CC(=O)OC)n1nnnc1[C@@H]1C[C@H](COC(c2ccccc2)(c2ccccc2)c2ccccc2)[C@H]2OC(C)(C)O[C@H]21 | > 100 µM (inactive)
Fc1ccc(C(OCCN2CCN(CCCCl)CC2)c2ccc(F)cc2)cc1 | 18.9 µM (inactive)
O=C1c2ccsc2-c2cccc3cccc1c23.O=C1c2sccc2-c2cccc3cccc1c23 | 18.9 µM (inactive)
CS(=O)(=O)N(N(CCCl)S(=O)(=O)c1ccccc1)S(C)(=O)=O | > 100 µM (inactive)
O=c1onc2c3ccccc3ncn12 | > 100 µM (inactive)
COC(=O)[C@@H]1Cc2cc(O)c(O)cc2C2(CCN(C)CC2)O1 | > 10 µM (inactive)
Nc1ncnc2c1ncn2CCCCC(=O)O | > 100 µM (inactive)
Cc1cc(NS(=O)(=O)c2ccc(NC(=O)c3ccc4[nH]c5ccccc5c(=O)c4c3)cc2)no1 | > 100 µM (inactive)

* * *

Listed molecules paired with reported GI50
# Tested on: TK-10
# assayInfo: NCI tumour cell line growth inhibition, 48 h
Activity calls are given as the source filed them. Cut-off read from the data, not from the text of the source: active = GI50 up to about 1.1 µM and inactive = higher.
propertyMeasured: GI50

molecule | result
CN1CC(c2ccccc2)C(O)(C2(c3ccccc3)CN(C)CC(c3ccccc3)C2=O)C(c2ccccc2)C1 (stereo not drawn) | > 100 µM (inactive)
CC(C)(C)C(=O)CC1(O)C=C(O)C(O)(CC(=O)C(C)(C)C)O1 (stereo not drawn) | 82.2 µM (inactive)
COc1ccc(C2C3=C(CCCC3=O)N(c3ccccc3)C3=C2C(=O)CCC3)cc1 | > 100 µM (inactive)
CCOC(=O)C(C#N)(Cc1c[nH]c2ccccc12)NC(C)=O (stereo not drawn) | > 100 µM (inactive)
CC1(c2cccc(C3CCC4(C=CC3=O)OCCO4)c2)OCCO1 (stereo not drawn) | 8.2 µM (inactive)
C=CC(Cl)(CBr)CCC(Br)C(C)(C)Cl (stereo not drawn) | 23.2 µM (inactive)
O=c1ssc2c1Nc1c(ssc1=O)S2 | 16 µM (inactive)
COC(=O)CN(CC1O[C@@H]2OC(C)(C)O[C@@H]2C1NC(C)=O)C(=O)OCc1ccccc1 (stereo partly drawn) | > 100 µM (inactive)

* * *

# System: IGROV-1
# assayInfo: NCI tumour cell line growth inhibition, 48 h
Calls of active or inactive are those of the source. Rule as the data show it: active = GI50 up to about 1.1 µM and inactive = higher.
propertyMeasured: GI50

compound | propertyMeasured | result
Cc1c2c(cc3c1C(=O)C(=O)C1=C3OC[C@@H]1C)C(C)(C)CCC2 | GI50 | 19.7 µM (inactive)
COc1ccc(-c2c(C(C)=O)c(-c3ccccc3)n(C3OC(COC(C)=O)C(OC(C)=O)C(OC(C)=O)C3OC(C)=O)c(=S)c2C#N)cc1 (centres undefined) | GI50 | > 100 µM (inactive)
CCOC(=O)[C@H](Cc1ccc(O)cc1)/N=C1/[C@H]2CCC[C@]1(O)[C@@](C)([N+](=O)[O-])C2 | GI50 | > 100 µM (inactive)
COC(=O)C12OCC34C(CC5C(C)=C(O)C(=O)CC5(C)C3C(O)C1O)OC(=O)C(OC(=O)C=C(C)C)C24 (centres undefined) | GI50 | 330 µM (inactive)
COc1ccc(/C=C(\NC(=O)c2ccccc2)C(=O)NN(C)c2ccnc3cc(Cl)ccc23)cc1OC | GI50 | 17.2 µM (inactive)
O=C(O)c1cc2ccccc2c2c1C(=O)c1ccccc1-2 | GI50 | 58.7 µM (inactive)
CCCC(O)c1cn(C(NC(=O)c2ccccc2)P(=O)(OCC)OCC)nn1 (centres undefined) | GI50 | > 100 µM (inactive)
O=C(O)CSCC(=O)c1ccccc1 | GI50 | > 100 µM (inactive)
CCCCCCc1cc2cc(C(=O)Nc3ccccc3F)c(=N)oc2cc1O | GI50 | 3.34 µM (inactive)

* * *

# Tested on: LOX IMVI
# assayInfo: NCI tumour cell line growth inhibition, 48 h
Active and inactive are the calls of the source. Rule as the data show it: active = GI50 up to about 1.1 µM and inactive = higher.
propertyMeasured: GI50

compound | propertyMeasured | result
Cc1[nH]c2ccccc2c1C1Cc2ccccc2N1C(=O)C#Cc1ccc([N+](=O)[O-])cc1 (stereo not given) | GI50 | > 100 µM (inactive)
C(=C\Nc1ccc(-c2ccccc2)cc1)/C=N/c1ccc(-c2ccccc2)cc1 | GI50 | > 100 µM (inactive)
CC(=O)O[C@H]1CC[C@@]2(C)C(=CC[C@@H]3[C@@H]2CC[C@]2(C)c4c(C)nn(-c5ccccc5)c4C[C@@H]32)C1 | GI50 | 12.3 µM (inactive)
COC(=O)C(c1n[nH]c2ccccc12)C(C(=O)OC)c1n[nH]c2ccccc12 (stereo not given) | GI50 | 68.2 µM (inactive)
C/C(O)=C1\CC2CN3CCc4c([nH]c5ccccc45)C3CC2CC1=O (stereo not given) | GI50 | 26.1 µM (inactive)
COCC1OC(OC2OCC3OC4(OCC(O)(C(C)OC)C5OCOC54)OC3C2OC)C(OC)C(O)C1OC1OC(C)C(OC)C(OC2OC(C)C3OC4(CC(O)C(OC5CC(OC6CC(C)([N+](=O)[O-])C(OC)C(C)O6)C(OC(=O)c6c(C)c(Cl)c(O)c(Cl)c6OC)C(C)O5)C(C)O4)OC3(C)C2O)C1O (stereo not given) | GI50 | > 100 µM (inactive)
O=C(CC1Sc2ccccc2NC1=O)Nc1cc(Cl)ccc1Cl (stereo not given) | GI50 | > 100 µM (inactive)
COC1(OC)CC(CO)(CNc2nc(N)nc(Cl)c2C=O)C1 | GI50 | 18.5 µM (inactive)
NNC(=O)Cc1cccnc1 | GI50 | > 100 µM (inactive)
O=C1C2CN(Cc3ccccc3)CC1CN(CC1CC1)C2 | GI50 | > 100 µM (inactive)
CC(C)(C)OC(=O)N1CC(CCl)c2ccc(O)cc21 (stereo not given) | GI50 | 1.76 µM (inactive)
C#CC1NC(=O)C1N(CC)CC (stereo not given) | GI50 | > 100 µM (inactive)
Nc1nccc(NCC2(CO)CC(CCc3ccccc3)C2)n1 (stereo not given) | GI50 | 14.3 µM (inactive)
CCNc1cc2c3c(c1)CCN3CCC2 | GI50 | > 10 µM (inactive)
CCc1cccc(C)c1NC(=O)C1=C(C)NC(C)=C(C(=O)Nc2c(C)cccc2CC)C1c1ccc2c(c1)OCO2 | GI50 | 18.3 µM (inactive)
COC(=O)CN(CC1O[C@@H]2OC(C)(C)O[C@@H]2C1NC(C)=O)C(=O)OCc1ccccc1 (stereo not given in full) | GI50 | > 100 µM (inactive)
O=c1ccn(C/C=C/c2ccccc2)c(=S)n1C/C=C/c1ccccc1 | GI50 | 28.6 µM (inactive)
COc1cc2c(cc1OC)C13CCN4CC5=CCOC6CC(=O)N2C1C6C5CC43O (stereo not given) | GI50 | > 100 µM (inactive)
O=C1CC(O)c2c1csc2Br (stereo not given) | GI50 | 16.4 µM (inactive)
CCc1cc2c(c3c1CCC3=O)CC1(Cc3ccc(C)cc3C1)C2 (stereo not given) | GI50 | 50.4 µM (inactive)
